Tested on: MDA-MB-231
Test: Antiproliferative activity against human MDA-MB-231 cells assessed as inhibition of cell growth incubated for 72 hrs by SRB method
Type: functional, cell-based
Conditions: MDA-MB-231, 72 h
Would you kindly list IC50 for each of these compounds?
# unit: nM | format: bare number

Reported IC50, compound "COc1ccccc1NC(=O)N1CCc2c(sc(NC(=O)c3cocn3)c2C#N)C1" : ____
500

Need IC50, item "COc1ccccc1CC(=O)Nc1sc2c(c1C#N)CCN(C(=O)Nc1ccccc1OC)C2"
230

Bench note: what IC50 did "COc1ccccc1NC(=O)N1CCc2c(sc(NC(=O)c3ccnn3C)c2C#N)C1" show?
9470

Item "COc1ccccc1NC(=O)N1CCc2c(sc(NC(=O)c3cccc(C)c3)c2C#N)C1" has what recorded IC50?
100

Which IC50 value belongs to "COc1ccccc1NC(=O)N1CCc2c(sc(NC(=O)c3ccccc3C)c2C#N)C1" ?
210

// query IC50 value for entry "COc1ccccc1NC(=O)N1CCc2c(sc(NC(=O)c3cccnc3)c2C#N)C1"
410

Using the record for "COc1ccccc1NC(=O)N1CCc2c(sc(NC(=O)c3ccccc3)c2C#N)C1" , report its IC50.
60
